- Test system: heart
- Protocol Notes: Effect on heart chronotropy and inotropy of a conscious dog
- Condition Info: change i.v. at heart frequency +10 beats/min, interpolated; ouabain 30 μg/kg i.v., paced
Attribute Measured: Mean arterial blood pressure (mm Hg)
Numbers only, in mm Hg.

CC(C)NCC(O)COc1ccc(O)cc1 (stereo not shown)
0

Please report Mean arterial blood pressure for every entry that follows.
1. CC(C)NCC(O)c1ccc(O)c(O)c1 (stereo not shown) [Isoprenaline, reference compound]
2. CC(C)NCC(O)COc1ccc(OC(=O)C(C)C)cc1 (stereo not shown)
3. C[C@@H]1O[C@@H](O[C@H]2C[C@@H](O)[C@]3(CO)[C@H]4[C@H](O)C[C@]5(C)[C@@H](C6=CC(=O)OC6)CC[C@]5(O)[C@@H]4CC[C@]3(O)C2)[C@H](O)[C@H](O)[C@H]1O [Ouabain, reference compound]

Reply |
1. -10
2. 0
3. 10

Measured values drawn from patent US4080471A for this set.
